In this section we review reported CLint(MAO) values for a set of molecules.
# Tested on: monoamine oxidase A and B (MAO-A and MAO-B)
# protocol-text: Stability in the presence of monoamine oxidases (human liver mitochondria preparation)
# condition-context: human liver mitochondria 0.30 mg protein/mL, 37° C.

INSERT INTO measurements (molecule, recorded_endpoint, recorded_measurement) VALUES
  ('CCCN(CC)CCc1c[nH]c2ccccc12 [EPT, N-ethyl-N-propyltryptamine, reference compound]', 'CLint(MAO)', '<15.9 µL/min/mg'),
  ('CN(C)CCc1c[nH]c2ccc(F)cc12 [Compound 5-F-DMT, reference compound]', 'CLint(MAO)', '266 µL/min/mg');

Now for another entry.
Write down the reported CLint(MAO) of CCN(C)CCc1c[nH]c2cccc(O)c12 [Compound 4-HO-MET, reference compound] , test system: monoamine oxidase A and B (MAO-A and MAO-B).
<15.9 µL/min/mg

---

# System: monoamine oxidase A and B (MAO-A and MAO-B)
# protocol-text: Stability in the presence of monoamine oxidases (human liver mitochondria preparation)
# Parameters: dose or concentration left out as unconfirmed
# condition-context: human, human liver mitochondria, pH 7.4
# Experimental: Liver Mitochondria Incubations. Human liver mitochondria (Xenotech H0610.M) were used.
In this section we review reported microsomal CLint values for a set of compounds.
Entry rule: numbers only, all in µL/min/mg.

// worked examples, microsomal CLint included
INSERT INTO measurements (query_smiles, unit_of_measurement, recorded_measurement) VALUES
  ('CC(C)NCCc1c[nH]c2ccc(F)c(O)c12', 'µL/min/mg', 79.6),
  ('NCCc1c[nH]c2ccc(F)c(O)c12', 'µL/min/mg', 356),
  ('CNCCc1c[nH]c2cc(F)cc(O)c12', 'µL/min/mg', 114);

Consider the compound `CNCCc1c[nH]c2cc(C)cc(O)c12` and give its measured microsomal CLint.
130

Consider the compound `NCCc1c[nH]c2cccc(O)c12` and give its measured microsomal CLint.
32.8

Consider the compound `CCNCCc1c[nH]c2ccc(F)c(O)c12` and give its measured microsomal CLint.
40.9

---

In this section we review reported half-life at 1 µM values for a set of compounds.
# protocol-text: Stability in rat brain homogenate
# Format: in vitro ADME, male Sprague Dawley rats
# condition-context: male, Sprague Dawley; rat brain homogenate, 1 μM, 37° C.
# Protocol: Disclosed compounds were tested for stability in rat brain homogenate (Table 8). There was widely variable stability among the test compounds under the conditions of the experiment. Rat Brain Homogenate Stability. Frozen rat brain homogenate (pooled from male Sprague Dawley rats, BioreclamationIVT, RAT00BRAINMZA) was thawed in a water bath at 37° C. immediately prior to use. […]
Entry rule: numbers only, all in min.

// worked examples, half-life at 1 µM included
INSERT INTO measurements (query_smiles, recorded_measurement) VALUES
  ('NCCc1c[nH]c2c(F)ccc(O)c12', 9.5),
  ('CCNCCc1c[nH]c2cc(F)cc(O)c12', 113),
  ('CC(C)n1cc(CCN(C)C)c2c(O)cc(F)cc21', 269),
  ('CNCCc1c[nH]c2ccc(F)c(O)c12', 2.2);

Now for another entry.
Consider the compound `CNCCc1c[nH]c2c(F)ccc(O)c12` and give its measured half-life at 1 µM.
3.6

---

# tested-target: 5-HT2A (Homo sapiens, UniProt P28223)
# Sequence (P28223 whole entry): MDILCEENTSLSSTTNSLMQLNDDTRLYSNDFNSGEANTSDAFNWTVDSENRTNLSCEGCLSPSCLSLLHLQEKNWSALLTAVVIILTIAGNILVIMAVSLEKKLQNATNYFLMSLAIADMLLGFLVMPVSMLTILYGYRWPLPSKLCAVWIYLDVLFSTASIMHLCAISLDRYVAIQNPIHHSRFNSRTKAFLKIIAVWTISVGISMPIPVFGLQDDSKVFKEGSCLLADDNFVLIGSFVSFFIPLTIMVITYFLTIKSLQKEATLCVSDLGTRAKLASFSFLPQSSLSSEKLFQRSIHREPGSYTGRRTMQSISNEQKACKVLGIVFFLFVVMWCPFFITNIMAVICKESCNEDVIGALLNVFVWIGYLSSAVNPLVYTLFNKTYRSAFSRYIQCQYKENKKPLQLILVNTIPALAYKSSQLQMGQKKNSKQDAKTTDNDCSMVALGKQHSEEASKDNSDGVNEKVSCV
# protocol-text: FLIPR Ca2+ flux agonist assay at 5-HT2A
# Format: cell-based
# Design: host or cells: HEK293
# condition-context: Ca2+ flux, HEK293, max dose
In this section we review reported 5-HT2A % Act @ Max Dose values for a set of compounds.
Entry rule: numbers only, all in %.

INSERT INTO results (query_smiles, tested_target, recorded_measurement) VALUES
  ('CCNCCc1c[nH]c2ccc(F)c(O)c12', '5-HT2A (Homo sapiens, UniProt P28223)', 92.60);

Consider the compound `CCNCCc1c[nH]c2cc(F)cc(O)c12` and give its measured 5-HT2A % Act @ Max Dose.
80.80

Consider the compound `CCCNCCc1c[nH]c2ccc(F)c(O)c12` and give its measured 5-HT2A % Act @ Max Dose.
71.78

Consider the compound `Oc1cccc2[nH]cc(CCNCCF)c12` and give its measured 5-HT2A % Act @ Max Dose.
86.8

Consider the compound `CNCCc1c[nH]c2ccc(F)c(O)c12` and give its measured 5-HT2A % Act @ Max Dose.
86.9

Consider the compound `CNCCc1c[nH]c2c(F)ccc(O)c12` and give its measured 5-HT2A % Act @ Max Dose.
77.43

---

# tested-target: 5-HT2B (Homo sapiens)
# Construct: host or cells: HEK293
# Sequence (P41595 whole entry, species assumed): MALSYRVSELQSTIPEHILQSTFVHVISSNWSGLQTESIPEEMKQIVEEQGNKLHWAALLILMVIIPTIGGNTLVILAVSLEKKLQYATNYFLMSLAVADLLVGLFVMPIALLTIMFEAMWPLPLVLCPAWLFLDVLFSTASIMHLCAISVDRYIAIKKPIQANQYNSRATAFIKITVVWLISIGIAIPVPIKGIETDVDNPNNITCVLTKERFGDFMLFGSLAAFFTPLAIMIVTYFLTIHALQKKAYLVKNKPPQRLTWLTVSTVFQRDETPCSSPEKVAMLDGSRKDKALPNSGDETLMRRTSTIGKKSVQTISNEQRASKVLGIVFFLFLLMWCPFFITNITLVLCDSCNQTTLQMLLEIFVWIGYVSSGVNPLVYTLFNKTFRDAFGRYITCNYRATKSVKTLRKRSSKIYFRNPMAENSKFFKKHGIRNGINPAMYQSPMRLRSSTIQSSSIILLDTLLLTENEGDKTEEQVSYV
# protocol-text: FLIPR Ca2+ flux agonist assay at 5-HT2B
# Type: cell-based
# condition-context: Ca2+ flux, HEK293, max dose
Hi! Just check whether 5-HT2B % Act @ Max Dose is below 10%. Below gives yes, equal or above gives no.

Some solved cases for reference:
INSERT INTO assay_data (molecule, classification) VALUES
  ('CCNCCc1c[nH]c2ccc(F)c(O)c12', 'no'),
  ('CNCCc1c[nH]c2cc(F)cc(O)c12', 'no'),
  ('CCN(C)CCc1c[nH]c2ccccc12 [MET, N-methyl-N-ethyltryptamine, reference compound]', 'no'),
  ('CCN(C)CCc1c[nH]c2cccc(O)c12 [Compound 4-HO-MET, reference compound]', 'yes');

Next item in the queue.
# TODO verify 5-HT2B % Act @ Max Dose < 10% strictly for this molecule: `CNCCc1cn(C(C)C)c2cc(F)cc(O)c12`
yes

---

# protocol-text: Plasma pharmacokinetics in rats after intravenous administration
# condition-context: male, Sprague Dawley, rat, plasma, iv, 1 mg/kg
recorded-endpoint: half-life (min)
Entry rule: numbers only, all in min.

// worked examples, half-life included
INSERT INTO results (molecule, recorded_endpoint, recorded_measurement) VALUES
  ('CN(C)CCc1c[nH]c2ccc(F)cc12 [Compound 5-F-DMT, reference compound]', 'half-life', 4.8),
  ('CCNCCc1c[nH]c2cccc(O)c12 [Compound 5, 3-(2-(ethylamino)ethyl)-1H-indol-4-ol]', 'half-life', 39),
  ('CN(C)CCc1c[nH]c2cccc(O)c12 [Psilocin, psilocin, reference compound]', 'half-life', 93.6);

Consider the molecule `CCNCCc1c[nH]c2ccc(F)c(O)c12` and give its measured half-life.
27.6
